# target under test: KIF18A (Homo sapiens (Human))
# Sequence (Q8NI77 1-367): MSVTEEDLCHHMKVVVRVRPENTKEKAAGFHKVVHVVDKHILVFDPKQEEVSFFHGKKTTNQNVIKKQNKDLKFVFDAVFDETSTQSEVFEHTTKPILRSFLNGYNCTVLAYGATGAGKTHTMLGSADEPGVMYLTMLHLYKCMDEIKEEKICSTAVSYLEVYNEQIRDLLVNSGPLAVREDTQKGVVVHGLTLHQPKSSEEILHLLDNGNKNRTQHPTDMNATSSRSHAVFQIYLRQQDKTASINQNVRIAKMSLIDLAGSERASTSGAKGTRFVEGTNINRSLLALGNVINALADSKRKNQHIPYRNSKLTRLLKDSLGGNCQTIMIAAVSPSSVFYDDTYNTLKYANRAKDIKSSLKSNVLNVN
# Sequence (P02550 whole entry partner): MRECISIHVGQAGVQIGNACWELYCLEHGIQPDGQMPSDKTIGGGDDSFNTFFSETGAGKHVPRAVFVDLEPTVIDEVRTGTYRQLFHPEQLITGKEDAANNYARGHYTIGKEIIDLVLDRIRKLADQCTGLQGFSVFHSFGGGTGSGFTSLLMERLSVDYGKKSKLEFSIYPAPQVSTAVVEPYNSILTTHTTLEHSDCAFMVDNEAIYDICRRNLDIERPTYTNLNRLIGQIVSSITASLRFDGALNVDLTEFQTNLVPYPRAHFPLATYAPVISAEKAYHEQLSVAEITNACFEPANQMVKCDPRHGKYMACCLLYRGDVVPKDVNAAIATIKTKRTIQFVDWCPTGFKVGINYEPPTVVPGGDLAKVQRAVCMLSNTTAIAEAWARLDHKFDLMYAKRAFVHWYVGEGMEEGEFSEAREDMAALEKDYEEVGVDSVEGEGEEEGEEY
# Sequence (P02554 whole entry partner): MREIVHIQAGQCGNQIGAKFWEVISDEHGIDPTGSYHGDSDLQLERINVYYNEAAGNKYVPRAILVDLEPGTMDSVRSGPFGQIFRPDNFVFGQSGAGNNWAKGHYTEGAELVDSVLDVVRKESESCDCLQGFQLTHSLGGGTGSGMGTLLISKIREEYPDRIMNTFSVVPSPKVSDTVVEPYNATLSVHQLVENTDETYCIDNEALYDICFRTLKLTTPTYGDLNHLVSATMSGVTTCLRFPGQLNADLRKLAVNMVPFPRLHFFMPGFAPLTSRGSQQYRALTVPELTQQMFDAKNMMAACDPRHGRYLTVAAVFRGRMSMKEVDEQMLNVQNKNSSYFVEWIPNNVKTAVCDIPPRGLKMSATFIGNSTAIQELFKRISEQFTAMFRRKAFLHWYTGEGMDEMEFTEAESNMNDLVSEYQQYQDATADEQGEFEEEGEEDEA
Overview of reported IC50 across a group of compounds:

# compound, recorded metric, data value
measured = [
    ("Cc1cc(NC(=O)c2ccc(NS(=O)(=O)CCO)cc2N2CCC3(C)CC3C2)nc(N2CCC(F)(F)CC2)n1 (stereo not shown)", "IC50", "< 100 nM"),
    ("Cc1cc(NC(=O)c2ccc(NS(=O)(=O)CCO)cc2N2CC[Si](C)(C)CC2)nc(N2CCC3(CC3)C2)n1", "IC50", "100 to 500 nM"),
]

Summary line: C[Si]1(C)CCN(c2cc(NS(=O)(=O)CCO)ccc2C(=O)Nc2cccc(S(=O)(=O)C3CCCC3)n2)CC1 , KIF18A (Homo sapiens (Human)), reported IC50 = 100 to 500 nM

Summary line: C[Si]1(C)CCN(c2cc(NS(=O)(=O)CCO)ccc2C(=O)Nc2ccnc(N3CCC(F)(F)CC3)c2)CC1 , KIF18A (Homo sapiens (Human)), reported IC50 = < 100 nM
